Experiment: NCI Yeast Anticancer Drug Screen. Data for the wt1 strain (AID 149);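 note: 0% = growth of vehicle-treated wt1 cultures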
Conditions: S. cerevisiae wt1 strain (SPY 50644) growth inhibition; at 33.0 µM; stronger effect = higher value
This is part of a sample that, as a whole, favours compounds with a hit. Of some 79,000 tested, about 15% had one in any assay.
Listed here are compounds together with their documented growth inhibition.
Measured quantity: growth inhibition (%)

In [3]: df
Out[3]:
                                    compound  measured_quantity  measured
 0  Cc1cccc(C)c1NC(=O)CCC(=O)C(C)C(=O)c1ccc(O)cc1 (stereo unspecified)  growth inhibition        -1
 1  CC(=O)O[C@H]1CC[C@@]2(C)C(=CC[C@@H]3C2CC[C@]2(C)C(=O)NC(=O)CC32)C1 (stereo partly specified)  growth inhibition       -17
 2  CC(=O)O/N=C1C=C/C(=C(/C#N)c2ccccc2)C=C/1C  growth inhibition        99
 3  CN(C)CCNCCCNc1c2ccccc2nc2cccc([N+](=O)[O-])c12  growth inhibition        20
 4                          CS(=O)(=O)O.[Ag]  growth inhibition        99
 5         CC(C)S(=O)(=O)/C=C\S(=O)(=O)C(C)C  growth inhibition        87
 6          C/C(=N/NC(=S)Nc1ccccc1C)c1ccccn1  growth inhibition       -10
 7  CCN(CC)CCCNc1ccc([N+](=O)[O-])c2nc3ccc(OC)cc3c(NCCCN(CC)CC)c12  growth inhibition        -2
 8  Oc1c2c(c(O)c3ccccc13)C1(N=N2)c2ccccc2Oc2ccccc21  growth inhibition        98
 9     CCCN=Cc1cc(Cc2ccc(O)c(C=NCCC)c2)ccc1O  growth inhibition        99
10  COc1ccc2nc3cccc([N+](=O)[O-])c3c(NCCCCCC(=O)O)c2c1  growth inhibition        98
11  CCCCS(=O)(=O)Nc1ccc(Nc2c3ccccc3nc3ccccc23)c(OC)c1  growth inhibition        44
12  O=C(Nn1c(-c2ccccc2)nc2ccccc2c1=O)c1ccc(CS)cc1  growth inhibition        23
13  O=C(NNc1ccccc1)C(CCCCNS(=O)(=O)Cc1ccccc1)NS(=O)(=O)Cc1ccccc1 (stereo unspecified)  growth inhibition        44
14  N#C/C(=C\NC(=S)Nc1ccc(S(N)(=O)=O)cc1)C(=O)c1ccc2ccccc2c1  growth inhibition         1
15            CCN(CC)C(=S)N/N=C(\C)c1ccccc1O  growth inhibition        98
16                    CCCCCCCC/C=C\CCCCCCCCN  growth inhibition        98
17        c1c[nH]c(CN2CCN(Cc3ncc[nH]3)CC2)n1  growth inhibition        98
18     CCN(CC)CC(=O)c1ccc2cc(Cl)c3ccccc3c2c1  growth inhibition        98
19  COC(=O)C(Cc1c[nH]c2ccccc12)N1CN(C)c2ccccc2C1=O (stereo unspecified)  growth inhibition        -4
20         O=C(/N=N/C(=O)Oc1ccccc1)Oc1ccccc1  growth inhibition       -32
21  Nc1ccc(N=Nc2ccc(-c3ccc(O)cc3)cc2)c2ccc(S(=O)(=O)O)cc12  growth inhibition        10
22  CCN(CC)CCNc1ccc2ncn3c4ccc(O)cc4c(=O)c1c23  growth inhibition        -2
23                       Fc1cc(F)c(F)c(S)c1F  growth inhibition        36
24          CC(C)=CCC/C(C)=C/CN1C(=O)C=CC1=O  growth inhibition       100
25       CCCCOc1ccc2nc(C)cc(N=[N+]=[N-])c2c1  growth inhibition        15
26         O=C1Nc2ccc(Br)cc2C1=Nc1ccc(Cl)cc1  growth inhibition        42
27  O=C(O)c1ccccc1C(=O)OC1CCc2ccccc2C1 (stereo unspecified)  growth inhibition        -1
28  O=C(NCCNCCNC(=O)c1cc(-c2ccccc2)nc2ccccc12)c1cc(-c2ccccc2)nc2ccccc12  growth inhibition        -2
29  CNC(=O)OCc1c2ccncc2c(C)c2c1[nH]c1ccccc12  growth inhibition        21
30         CC(=O)/C=C/c1cccc([N+](=O)[O-])c1  growth inhibition        16
31  O=C1c2cccc3cccc(c23)C(=O)N1CCNCCN1C(=O)c2cccc3cccc(c23)C1=O  growth inhibition         1
32              CC1=C(C)C(=O)C2=C(OCCO2)C1=O  growth inhibition        -4
33     CCOP(=O)(OCC)/C(C#N)=C\c1cccc2ccccc12  growth inhibition        87
34  C=COC(=O)N[C@H]1CCc2cc(OC)c(OC)c(OC)c2-c2ccc(SC)c(=O)cc21  growth inhibition        -2
35  Cc1c2cc[n+](CCO)cc2c(C)c2c1[nH]c1ccc(O)cc12  growth inhibition        11
36               NNc1ccccc1-c1nc2ccccc2[nH]1  growth inhibition        -4
37  CCC[CH2][Ge]([CH2]CCC)([CH2]CCC)[O]C(=O)C(O)c1ccccc1 (stereo unspecified)  growth inhibition        60
38  Nc1cccc(-c2cc[cH-]c2)c1.[Fe+2].c1cc[cH-]c1  growth inhibition         2
39                Oc1ccc(N=Nc2ccc(Cl)cc2)cc1  growth inhibition        99
40                   CN(C)N=Nc1ccc(N(C)C)cc1  growth inhibition        -2
41  O=C1CC(C(O)(C(F)(F)F)C(F)(F)Cl)CCC1C(O)(C(F)(F)F)C(F)(F)Cl (stereo unspecified)  growth inhibition        91
42             CN(N=O)C(=O)Nc1ccc(C(=O)O)cc1  growth inhibition        -2
43  Cc1cccc2c(NCCCN(C)C)c3c([N+](=O)[O-])ccc(C)c3nc12  growth inhibition        95
44  NC(CS)C(=O)NCCNc1ccc(NCCNC(=O)C(N)CS)c2c1C(=O)c1c(O)ccc(O)c1C2=O (stereo unspecified)  growth inhibition        45
45  COc1ccc(C2CC(C)(N3CCCC3)Oc3cc4c(cc32)OCO4)cc1 (stereo unspecified)  growth inhibition        -9

Source: PubChem BioAssay (NCI)
